Molecular target: Transcription factor p65 (Human, UniProt Q04206)
Sequence (Q04206 whole entry): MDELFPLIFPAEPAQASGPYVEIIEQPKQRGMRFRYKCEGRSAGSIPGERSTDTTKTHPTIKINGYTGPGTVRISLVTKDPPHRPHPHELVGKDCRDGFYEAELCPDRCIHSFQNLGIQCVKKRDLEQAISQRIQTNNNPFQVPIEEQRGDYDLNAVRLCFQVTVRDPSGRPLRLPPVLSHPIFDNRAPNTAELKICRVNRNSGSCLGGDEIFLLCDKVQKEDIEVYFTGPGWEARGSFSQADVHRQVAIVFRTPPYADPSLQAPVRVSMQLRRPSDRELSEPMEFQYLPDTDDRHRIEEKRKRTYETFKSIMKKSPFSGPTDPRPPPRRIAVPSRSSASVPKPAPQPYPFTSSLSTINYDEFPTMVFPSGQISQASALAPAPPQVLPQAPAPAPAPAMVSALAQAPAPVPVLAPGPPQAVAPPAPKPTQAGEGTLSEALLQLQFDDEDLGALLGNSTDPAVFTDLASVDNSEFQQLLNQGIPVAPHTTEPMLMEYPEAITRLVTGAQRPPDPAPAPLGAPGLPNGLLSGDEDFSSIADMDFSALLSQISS
Experiment: Inhibition of NFkappaB p65 activation (unknown origin) expressed in human HeLa cells assessed as inhibition of TNFalpha-induced NFkappaB p65 nuclear accumulation pretreated with cells followed by TNFalpha addition by DAPI staining based microscopic analysis
reported property: IC50

Which value of IC50 has been reported for `CC(=O)O[C@H]1CC/C(C)=C/CC/C(C)=C/C[C@]2(C(C)C)CC[C@@]1(C)O2` in the records?
> 100 µM
